target: PDE10A (Homo sapiens, UniProt Q9Y233); assay: PDE10A inhibition, IMAP fluorescence polarization assay; format: biochemical; conditions: PDE10A inhibition IC50 μM, substrate cGMP
Sequence (Q9Y233 290-1055 limits assumed): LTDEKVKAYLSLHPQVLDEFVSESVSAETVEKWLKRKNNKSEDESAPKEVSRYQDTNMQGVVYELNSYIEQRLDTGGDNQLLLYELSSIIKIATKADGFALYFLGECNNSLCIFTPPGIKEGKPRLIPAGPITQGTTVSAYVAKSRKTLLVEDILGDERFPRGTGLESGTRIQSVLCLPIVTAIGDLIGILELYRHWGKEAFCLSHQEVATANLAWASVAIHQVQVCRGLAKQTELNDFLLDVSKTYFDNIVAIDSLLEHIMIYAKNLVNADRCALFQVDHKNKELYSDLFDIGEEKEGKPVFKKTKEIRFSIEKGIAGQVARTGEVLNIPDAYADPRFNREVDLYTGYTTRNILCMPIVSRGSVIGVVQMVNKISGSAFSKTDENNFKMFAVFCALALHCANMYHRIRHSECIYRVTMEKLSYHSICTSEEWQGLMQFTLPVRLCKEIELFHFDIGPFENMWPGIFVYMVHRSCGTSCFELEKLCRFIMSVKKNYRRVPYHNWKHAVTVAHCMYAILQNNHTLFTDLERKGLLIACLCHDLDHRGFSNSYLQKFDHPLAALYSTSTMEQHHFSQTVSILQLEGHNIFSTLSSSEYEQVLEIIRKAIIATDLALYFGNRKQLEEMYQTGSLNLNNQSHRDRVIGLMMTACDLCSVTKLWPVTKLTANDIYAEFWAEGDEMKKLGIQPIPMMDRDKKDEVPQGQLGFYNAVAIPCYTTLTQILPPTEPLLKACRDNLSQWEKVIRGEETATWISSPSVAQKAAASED
Task for the reader: assign each of the following molecules its reported IC50.
The reply should be a number in µM, with the unit left off.

Let me know recorded IC50 for `CCN1CC(=O)N2[C@H](c3ccc(Br)cc3)c3[nH]c4ccccc4c3C[C@@H]2C1=O` , thanks.
14.7

Let me know recorded IC50 for `CN1CC(=O)N2[C@H](c3ccc(Br)cc3)c3[nH]c4ccccc4c3C[C@@H]2C1=O` , thanks.
41.7

----------
molecular target: PDE11A (Homo sapiens); assay: PDE11A inhibition, IMAP fluorescence polarization assay; type: biochemical; settings: read-out: PDE11A inhibition IC50 μM; substrate cAMP
Sequence (Q9HCR9 whole entry): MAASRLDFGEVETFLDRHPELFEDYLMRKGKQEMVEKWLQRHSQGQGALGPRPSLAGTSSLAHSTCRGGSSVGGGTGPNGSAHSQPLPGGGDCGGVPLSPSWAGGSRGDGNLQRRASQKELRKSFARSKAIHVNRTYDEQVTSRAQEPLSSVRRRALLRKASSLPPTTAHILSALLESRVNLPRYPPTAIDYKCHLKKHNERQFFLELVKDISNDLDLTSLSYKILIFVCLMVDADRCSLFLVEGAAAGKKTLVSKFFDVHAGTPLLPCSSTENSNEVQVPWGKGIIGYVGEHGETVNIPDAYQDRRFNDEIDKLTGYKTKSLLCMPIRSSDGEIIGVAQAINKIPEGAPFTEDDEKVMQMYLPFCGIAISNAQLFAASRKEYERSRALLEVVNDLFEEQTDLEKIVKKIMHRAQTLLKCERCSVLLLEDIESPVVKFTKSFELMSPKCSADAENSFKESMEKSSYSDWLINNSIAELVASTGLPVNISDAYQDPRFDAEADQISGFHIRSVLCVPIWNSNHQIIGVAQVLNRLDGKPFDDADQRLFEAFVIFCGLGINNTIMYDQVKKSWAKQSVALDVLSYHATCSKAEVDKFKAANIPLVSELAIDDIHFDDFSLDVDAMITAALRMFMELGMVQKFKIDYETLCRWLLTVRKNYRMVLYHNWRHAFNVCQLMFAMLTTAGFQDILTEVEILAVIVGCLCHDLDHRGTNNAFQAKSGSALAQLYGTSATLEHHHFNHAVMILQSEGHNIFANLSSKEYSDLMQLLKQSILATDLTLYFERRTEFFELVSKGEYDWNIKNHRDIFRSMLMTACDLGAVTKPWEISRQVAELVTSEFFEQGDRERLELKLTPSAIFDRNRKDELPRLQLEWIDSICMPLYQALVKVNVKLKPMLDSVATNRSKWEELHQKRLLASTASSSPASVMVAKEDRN
reported metric: IC50 (µM)
The reply should be a number in µM, with the unit left off.

Let me know recorded IC50 for `CCCCN1CC(=O)N2[C@H](c3ccc(Br)cc3)c3[nH]c4ccccc4c3C[C@@H]2C1=O` , thanks.
1.2

----------
target: human PDE5 (Homo sapiens); assay: PDE5 inhibition, IMAP fluorescence polarization phosphodiesterase assay; assay type: biochemical
Task for the reader: assign each of the following compounds its reported IC50.
The reply should be a number in µM, with the unit left off.

Let me know recorded IC50 for CCC(C)N1C(=O)[C@H]2Cc3c([nH]c4ccccc34)[C@@H](c3ccc(Br)cc3)N2C1=O (stereo partly shown) [Compound 13] , thanks.
0.37

Let me know recorded IC50 for CCC(C)N1C(=O)[C@H]2Cc3c([nH]c4ccccc34)[C@H](c3ccc(Br)cc3)N2C1=O (stereo partly shown) [Compound 14] , thanks.
6

Let me know recorded IC50 for CCN1C(=O)[C@H]2Cc3c([nH]c4ccccc34)[C@@H](c3ccc(Br)cc3)N2C1=O [Compound 5] , thanks.
2.8

Let me know recorded IC50 for CCCCN1CC(=O)N2[C@@H](c3ccc(Br)cc3)c3[nH]c4ccccc4c3C[C@@H]2C1=O [Compound 34] , thanks.
6.6

----------
target: PDE1A (Homo sapiens, UniProt P54750); assay: PDE1A inhibition, IMAP fluorescence polarization assay; type: biochemical; details: read-out: PDE1A inhibition IC50 μM; substrate cAMP
Sequence (P54750 whole entry): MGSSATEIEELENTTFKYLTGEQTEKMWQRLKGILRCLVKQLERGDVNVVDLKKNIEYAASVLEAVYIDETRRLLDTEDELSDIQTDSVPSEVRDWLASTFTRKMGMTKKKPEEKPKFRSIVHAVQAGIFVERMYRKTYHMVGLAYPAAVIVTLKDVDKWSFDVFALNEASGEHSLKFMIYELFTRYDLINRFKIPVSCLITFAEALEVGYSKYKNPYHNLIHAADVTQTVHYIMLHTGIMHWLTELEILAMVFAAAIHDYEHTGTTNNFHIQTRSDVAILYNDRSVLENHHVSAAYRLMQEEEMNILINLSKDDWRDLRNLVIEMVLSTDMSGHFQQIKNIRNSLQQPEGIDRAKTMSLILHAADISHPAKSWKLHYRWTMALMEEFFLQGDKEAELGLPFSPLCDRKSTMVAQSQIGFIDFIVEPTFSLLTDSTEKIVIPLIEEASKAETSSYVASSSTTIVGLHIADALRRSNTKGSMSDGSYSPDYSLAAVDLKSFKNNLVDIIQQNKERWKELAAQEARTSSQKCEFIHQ
reported metric: IC50

Let me know recorded IC50 for `CCCCN1CC(=O)N2[C@H](c3ccc(Br)cc3)c3[nH]c4ccccc4c3C[C@@H]2C1=O` , thanks.
> 50 µM

----------
biological target: human PDE5 (Homo sapiens, UniProt O76074); test: PDE5 inhibition, IMAP fluorescence polarization phosphodiesterase assay; format: biochemical; conditions: read-out: IC50 μM (PDE5); 8 concentrations 1 nM–10 μM
reported metric: IC50 (µM)
The reply should be a number in µM, with the unit left off.

Let me know recorded IC50 for `CCCCN1CC(=O)N2[C@H](c3ccc(Br)cc3)c3[nH]c4ccccc4c3C[C@@H]2C1=O` , thanks.
0.009

----------
target: PDE3B (Homo sapiens); test: PDE3B inhibition, IMAP fluorescence polarization assay; assay type: biochemical; settings: read-out: PDE3B inhibition IC50 μM; substrate cGMP
Sequence (Q13370 whole entry): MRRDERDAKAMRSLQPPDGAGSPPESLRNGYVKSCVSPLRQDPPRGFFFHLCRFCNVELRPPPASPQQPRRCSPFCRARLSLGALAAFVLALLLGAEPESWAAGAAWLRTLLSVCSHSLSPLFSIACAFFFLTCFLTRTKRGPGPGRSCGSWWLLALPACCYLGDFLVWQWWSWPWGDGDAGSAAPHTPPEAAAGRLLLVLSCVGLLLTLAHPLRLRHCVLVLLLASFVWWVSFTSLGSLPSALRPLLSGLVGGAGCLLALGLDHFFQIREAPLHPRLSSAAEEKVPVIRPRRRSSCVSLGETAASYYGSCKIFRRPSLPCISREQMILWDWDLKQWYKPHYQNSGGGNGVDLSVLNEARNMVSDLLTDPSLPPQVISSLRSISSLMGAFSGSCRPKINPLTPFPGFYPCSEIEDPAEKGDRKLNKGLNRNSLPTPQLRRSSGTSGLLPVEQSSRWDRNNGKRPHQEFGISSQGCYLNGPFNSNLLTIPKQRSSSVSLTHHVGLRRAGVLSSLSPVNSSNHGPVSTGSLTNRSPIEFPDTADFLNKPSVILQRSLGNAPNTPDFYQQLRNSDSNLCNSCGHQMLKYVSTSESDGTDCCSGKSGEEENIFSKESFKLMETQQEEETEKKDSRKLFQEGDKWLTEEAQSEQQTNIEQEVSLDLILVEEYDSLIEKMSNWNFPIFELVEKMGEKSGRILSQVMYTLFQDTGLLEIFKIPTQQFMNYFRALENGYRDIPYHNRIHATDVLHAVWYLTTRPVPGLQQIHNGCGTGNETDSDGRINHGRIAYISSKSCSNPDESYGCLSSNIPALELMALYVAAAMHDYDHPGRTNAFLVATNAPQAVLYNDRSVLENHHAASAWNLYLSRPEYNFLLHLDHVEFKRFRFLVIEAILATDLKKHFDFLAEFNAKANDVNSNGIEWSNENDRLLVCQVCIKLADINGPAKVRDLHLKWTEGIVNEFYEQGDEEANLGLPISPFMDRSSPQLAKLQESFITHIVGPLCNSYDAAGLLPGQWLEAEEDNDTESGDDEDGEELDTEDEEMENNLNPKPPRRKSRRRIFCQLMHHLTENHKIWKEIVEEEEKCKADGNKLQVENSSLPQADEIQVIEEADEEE
Task for the reader: assign each of the following compounds its reported IC50.

Let me know recorded IC50 for `CCN1C(=O)[C@@H]2Cc3c([nH]c4ccccc34)[C@@H](c3ccc(Br)cc3)N2C1=O` , thanks.
> 50 µM

Let me know recorded IC50 for `CCN1CC(=O)N2[C@H](c3ccc(Br)cc3)c3[nH]c4ccccc4c3C[C@@H]2C1=O` , thanks.
> 50 µM

Let me know recorded IC50 for `CN1CC(=O)N2[C@H](c3ccc(Br)cc3)c3[nH]c4ccccc4c3C[C@H]2C1=O` , thanks.
> 50 µM

Let me know recorded IC50 for `CN1CC(=O)N2[C@H](c3ccc(Br)cc3)c3[nH]c4ccccc4c3C[C@@H]2C1=O` , thanks.
> 50 µM

Let me know recorded IC50 for `CCCCN1CC(=O)N2[C@H](c3ccc(Br)cc3)c3[nH]c4ccccc4c3C[C@@H]2C1=O` , thanks.
> 50 µM

Let me know recorded IC50 for CN1CC(=O)N2[C@H](c3ccc4c(c3)OCO4)c3[nH]c4ccccc4c3C[C@@H]2C1=O [Compound I, tadalafil, reference compound] , thanks.
> 50 µM
